- Measurement Target: And-1 (Homo sapiens)
- Sequence (O75717 whole entry): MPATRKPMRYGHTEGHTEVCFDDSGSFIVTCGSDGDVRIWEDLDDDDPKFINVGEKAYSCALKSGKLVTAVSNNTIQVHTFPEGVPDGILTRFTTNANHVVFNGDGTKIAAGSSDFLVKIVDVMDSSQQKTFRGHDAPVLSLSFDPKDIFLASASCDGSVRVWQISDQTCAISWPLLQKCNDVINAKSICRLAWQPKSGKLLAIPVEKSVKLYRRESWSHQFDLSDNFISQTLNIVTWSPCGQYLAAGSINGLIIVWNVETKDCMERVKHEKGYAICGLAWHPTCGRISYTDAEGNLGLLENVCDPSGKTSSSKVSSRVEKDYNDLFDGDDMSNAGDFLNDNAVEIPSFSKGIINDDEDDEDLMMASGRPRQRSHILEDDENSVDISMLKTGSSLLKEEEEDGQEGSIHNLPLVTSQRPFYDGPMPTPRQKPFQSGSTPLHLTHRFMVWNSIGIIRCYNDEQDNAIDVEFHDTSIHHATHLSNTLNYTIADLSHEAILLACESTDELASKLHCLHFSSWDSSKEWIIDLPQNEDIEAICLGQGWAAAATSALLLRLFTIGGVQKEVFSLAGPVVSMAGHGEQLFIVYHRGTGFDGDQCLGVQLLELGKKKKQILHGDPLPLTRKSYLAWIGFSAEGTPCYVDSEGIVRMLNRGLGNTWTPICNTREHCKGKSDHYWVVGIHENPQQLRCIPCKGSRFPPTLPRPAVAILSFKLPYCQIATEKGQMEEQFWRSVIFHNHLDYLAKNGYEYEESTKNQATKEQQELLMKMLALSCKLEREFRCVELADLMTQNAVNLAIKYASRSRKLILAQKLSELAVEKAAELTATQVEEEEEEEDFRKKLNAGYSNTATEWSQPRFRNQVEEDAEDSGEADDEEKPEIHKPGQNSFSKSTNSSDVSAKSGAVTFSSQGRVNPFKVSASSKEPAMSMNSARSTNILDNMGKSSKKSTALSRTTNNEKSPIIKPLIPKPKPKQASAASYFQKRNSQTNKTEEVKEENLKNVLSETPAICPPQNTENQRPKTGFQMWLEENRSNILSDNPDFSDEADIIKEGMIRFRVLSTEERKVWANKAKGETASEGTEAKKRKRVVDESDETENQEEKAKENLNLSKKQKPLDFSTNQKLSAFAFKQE
- Method: inhibition of And-1 in OV90 CR cells
- Type: cell-based
- Set-up: endogenous in cells
- Measurement Setup: inhibition of And-1, OV90 CR cells
Quantity Name: IC50 (µM)

# count of solved cases: 5
Compound	IC50 / µM
Cc1cccc(/C=C/c2ccc3c(c2)COB3O)c1 [XI]	34.3
OB1OCc2cc(/C=C/c3cccc(C(F)(F)F)c3)ccc21 [Compound II]	21.1
OB1OCc2cc(/C=C/c3ccc(Cl)c(Cl)c3)ccc21 [III]	13.3
COc1cccc(/C=C/c2ccc3c(c2)COB3O)c1 [XII]	37.4
OB1OCc2cc(/C=C/c3cccc(Cl)c3)ccc21 [X]	20.6

A: OB1OCc2cc(/C=C/c3cc(Cl)cc(Cl)c3)ccc21 [XIV]
B: OB1OCc2cc(/C=C/c3cc(C(F)(F)F)cc(C(F)(F)F)c3)ccc21 [IV]
Q: Param pair: A , B . Output: the one whose IC50 is numerically greater. Bench note: the answer is the label of the chosen record.
Result: B

---

- Measurement Target: And-1 protein fused to a luciferase reporter gene (Homo sapiens, UniProt O75717)
- Sequence (O75717 whole entry, the tested form may be a part): as the sequence (O75717 whole entry) above
- Method: quantitative HTS (qHTS) of LOPAC library in HEK293T-And-1-Luc cells (luciferase read-out of And-1 level)
- Assay type: cell-based
- Measurement Setup: HTS assay, determination 1; read-out: IC50 (μM) 1
Consider the following compounds and their measured IC50 readings.
Response body: numeric value in µM, unit text excluded.

# count of solved cases: 5
Compound	Measurement Target	IC50, µM
CC[n+]1c(/C=C/C=C2/N(C)c3ccccc3C2(C)C)sc2ccccc21 [AC-93253 iodide]	And-1 protein fused to a luciferase reporter gene (Homo sapiens, UniProt O75717)	1.09
C/C=C(/C)C(=O)O[C@H]1C(C)=C2[C@H]([C@@H]1OC(=O)CCCCCCC)[C@@](C)(OC(C)=O)C[C@H](OC(=O)CCC)[C@@]1(O)[C@H]2OC(=O)[C@@]1(C)O	And-1 protein fused to a luciferase reporter gene (Homo sapiens, UniProt O75717)	13.3
C=CCc1cccc(/C=N/NC(=O)CN2CCN(Cc3ccccc3)CC2)c1O	And-1 protein fused to a luciferase reporter gene (Homo sapiens, UniProt O75717)	18.8
CNc1ccc2oc(C[C@H]3O[C@@]4(CC[C@H]3C)O[C@H]([C@H](C)C(=O)c3ccc[nH]3)[C@H](C)C[C@H]4C)nc2c1C(=O)O	And-1 protein fused to a luciferase reporter gene (Homo sapiens, UniProt O75717)	6.1
O=C1C(SCCO)=C(SCCO)C(=O)c2ccccc21	And-1 protein fused to a luciferase reporter gene (Homo sapiens, UniProt O75717)	11.2

Q: Item under review: CC[C@@]1(O)C(=O)OCc2c1cc1n(c2=O)Cc2cc3ccccc3nc2-1 [(S)-(+)-Camptothecin] . Reported IC50?
Result: 0.73

Source listed as patent US12258360B2.
